- experimental.setup: 333.15 K; 50000 kPa; Liquid; Vibrating tube method
reported.property: mass density (kg/m3)

>>> recorded_number("CCCCCCCC(=O)OC [methyl octanoate]")
878.98
>>> recorded_number("CCCCCCCCC(=O)OC [methyl nonanoate]")
876.13
>>> recorded_number("CCCC(=O)OC [methyl butanoate]")
899.8
>>> recorded_number("CCCCCCC(=O)OC [methyl heptanoate]")
882.2
>>> recorded_number("CCCCCC(=O)OC [methyl hexanoate]")
886.48
>>> recorded_number("CCCCC(=O)OC [methyl pentanoate]")
892.02

###

- experimental.setup: 363.15 K; 100 kPa; Liquid; Vibrating tube method
reported.property: mass density (kg/m3)

>>> recorded_number("CCCCCC(=O)OC [methyl hexanoate]")
815.64
>>> recorded_number("CCCCCCCC(=O)OC [methyl octanoate]")
814.86
>>> recorded_number("CCCCC(=O)OC [methyl pentanoate]")
816.63
>>> recorded_number("CCCCCCCCC(=O)OC [methyl nonanoate]")
814.24
>>> recorded_number("CCCC(=O)OC [methyl butanoate]")
817.31
>>> recorded_number("CCCCCCC(=O)OC [methyl heptanoate]")
815.19

###

- experimental.setup: 323.15 K; 30000 kPa; Liquid; Vibrating tube method
reported.property: mass density (kg/m3)

>>> recorded_number("CCCCCCCC(=O)OC [methyl octanoate]")
873.15
>>> recorded_number("CCCCCCC(=O)OC [methyl heptanoate]")
876.31
>>> recorded_number("CCCCCC(=O)OC [methyl hexanoate]")
880.55
>>> recorded_number("CCCCCCCCC(=O)OC [methyl nonanoate]")
870.68
>>> recorded_number("CCCCC(=O)OC [methyl pentanoate]")
885.65
>>> recorded_number("CCCC(=O)OC [methyl butanoate]")
893.19

###

- experimental.setup: 293.15 K; 10000 kPa; Liquid; Vibrating tube method
reported.property: mass density (kg/m3)

>>> recorded_number("CCCCC(=O)OC [methyl pentanoate]")
897.77
>>> recorded_number("CCCCCCCCC(=O)OC [methyl nonanoate]")
880.79
>>> recorded_number("CCCCCCCC(=O)OC [methyl octanoate]")
883.45
>>> recorded_number("CCCCCCC(=O)OC [methyl heptanoate]")
886.99
>>> recorded_number("CCCCCC(=O)OC [methyl hexanoate]")
891.64
>>> recorded_number("CCCC(=O)OC [methyl butanoate]")
906.55

###

- experimental.setup: 313.15 K; 40000 kPa; Liquid; Vibrating tube method
reported.property: mass density (kg/m3)

>>> recorded_number("CCCCCCCC(=O)OC [methyl octanoate]")
887.04
>>> recorded_number("CCCCC(=O)OC [methyl pentanoate]")
901.45
>>> recorded_number("CCCC(=O)OC [methyl butanoate]")
910.02
>>> recorded_number("CCCCCCCCC(=O)OC [methyl nonanoate]")
884.18
>>> recorded_number("CCCCCCC(=O)OC [methyl heptanoate]")
890.73
>>> recorded_number("CCCCCC(=O)OC [methyl hexanoate]")
895.54

###

- experimental.setup: 363.15 K; 20000 kPa; Liquid; Vibrating tube method
reported.property: mass density (kg/m3)

>>> recorded_number("CCCCCC(=O)OC [methyl hexanoate]")
837.93
>>> recorded_number("CCCCC(=O)OC [methyl pentanoate]")
840.59
>>> recorded_number("CCCCCCC(=O)OC [methyl heptanoate]")
836.11
>>> recorded_number("CCCCCCCCC(=O)OC [methyl nonanoate]")
833.26
>>> recorded_number("CCCCCCCC(=O)OC [methyl octanoate]")
834.62
>>> recorded_number("CCCC(=O)OC [methyl butanoate]")
843.84
